target_entity: T1, human VEGF-A residues 27-191 of Accession #AAV38412 (human, UniProt P15692 27-191)
T1 construct: range 27-191
assay_remarks: BIAcore SPR
Procedure: The binding kinetics and affinity of the antibodies for VEGF (human VEGF-A residues 27-191 of Accession #AAV38412) was determined by using a BIAcore T200 surface plasmon resonance system (BIAcore, GE Healthcare, Piscataway, N.J.). Coupling running buffer was HBS-EP+ running buffer (10 mM HEPES, 150 mM sodium chloride, 3 mM EDTA 0.05% P-20, pH 7.4); assay running buffer was HBS-EP+ with 300 mM sodium chloride and 0.1 mg/mL BSA (Sigma A7906). […]
measurement_label: koff (s⁻¹)
Field format: number, assumed s⁻¹, no unit text.

{"binder": "92 (antibody, human IgG1, V domains shown) VH: EVQLVESGGGLVQPGGSLRLSCAASGYTFTNYGMNWVRQAPGKGLEWVGWINTYTGEPTYAADFKRRFTFSLDTSKSTAYLQMNSLRAEDTAVYYCAKYPPYYGSSHWYFDVWGQGTLVTVSS VL: DIQMTQSPSSLSASVGDRVTITCSASQDISNYLNWYQQKPGKAPKVLIYFTSSLHSGVPSRFSGSGSGTDFTLTISSLQPEDFATYYCQQYSTVPWTFGQGTKVEIKR", "koff [s⁻¹]": 0.00021}

Query block: Request the reported koff associated with T28 R (anti-VEGF IgG) (antibody, V domains shown, copies: 2 + 2) VH: EVQLVESGGGLVQPGGSLRLSCAASGYRFTNYGMNWVRQAPGKGLEWVGWINTYTGEPTYAADFKRRFTFSLDTSKSTAYLQMNSLRAEDTAVYYCAKYPHYYGSSHWYFDVWGQGTLVTVSS VL: DIQMTQSPSSLSASVGDRVTITCSASQDISNYLNWYQQKPGKAPKVLIYFTSSLHSGVPSRFSGSGSGTDFTLTISSLQPEDFATYYCQQYSTVPWTFGQGTKVEIK
Result block: 6.44e-05
